- system.under.test: Cytochrome P450 3A4 (Homo sapiens)
- assay.method.text: qHTS Assay for Activators of Cytochrome P450 3A4 (AID 885); note: nearly all actives have a fitted effect of over 65% in size
- particulars: recombinant CYP3A4, Luciferin-PPXE luminescence, 60 min; series mostly up to 57.1 µM
Activity calls are given as the source filed them. Calls come from the whole dose curve; as a rule, active = well fitted activation curve with a large enough effect; inconclusive = small, poorly fitted or top-dose-only effect; inactive = no such curve, though single readings can be large or run the other way.
Assign a class; possible classes are true (1) for active, false (0) for inactive

[[record]]
query_smiles = "COc1cccc(-c2nc(NC3CCNCC3)c3ccccc3n2)c1"
system_under_test = "Cytochrome P450 3A4 (Homo sapiens)"
class_label = "false (0)"


stdin: Which outcome was assigned to CC(=O)NCCNc1nc(-c2cccc(NS(C)(=O)=O)c2)nc2ccccc12 in this test?
stdout: false (0)

stdin: Which outcome was assigned to O=c1c(O)c(-c2ccc(O)cc2)oc2ccccc12 in this test?
stdout: false (0)

stdin: Which outcome was assigned to COc1ccccc1CNc1nc(-c2cccnc2)nc2ccccc12 in this test?
stdout: false (0)

stdin: Which outcome was assigned to COc1cccc(Cn2c(=O)c(-c3ccc(Cl)cc3)nc3cnc(N4CCN(C)CC4)nc32)c1 in this test?
stdout: true (1)

stdin: Which outcome was assigned to COCCn1c(=O)c(-c2cn(C)c3ccccc23)nc2cnc(OCc3ccccc3)nc21 in this test?
stdout: false (0)

* * *

- assay.method.text: NFAT Signaling Pathway (AID 444);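 note: carbachol stimulus at about its EC50 of 1 µM final; % is set by controls: 0 for no effect and ±100 for the full control effect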
- particulars: Jurkat NFAT-bla M1, carbachol, beta-lactamase ratio, 5 h; at 7.69 µM (top of the series) unless noted
Inconclusive results are not listed. The source made the active and inactive calls. Calls come from the whole dose curve; as a rule, active = well fitted curve in either direction with a large enough effect (not every such curve was filed as active); inconclusive = small, poorly fitted or top-dose-only effect, or another doubt; inactive = flat fitted curve, though single readings scatter.
property: activity change, negative = inhibition

# example entries with known answers
[[record]]
query_smiles = "CN(C)C(=O)c1ccc(-c2ccc3ncnc(NC4CCNCC4)c3c2)cc1"
result = "7.8% (inactive)"

[[record]]
query_smiles = "CC(C)COC[C@H](CN(Cc1ccccc1)c1ccccc1)N1CCCC1"
result = "-5.29% [at 38 µM] (inactive)"

[[record]]
query_smiles = "c1cncc(-c2cc(-n3ccnc3)ncn2)c1"
result = "4.07% (inactive)"

[[record]]
query_smiles = "c1cncc(-c2nc(-n3ccnc3)c3ccccc3n2)c1"
result = "8.3% (inactive)"

[[record]]
query_smiles = "CNc1nc(-c2c(C)noc2C)nc2ccccc12"
result = "8.72% (inactive)"

[[record]]
query_smiles = "Cc1ccccc1-c1cc(NCc2cccnc2)ncn1"
result = "2.72% (inactive)"


Recorded activity change, negative = inhibition (compound COc1ccc(CNc2cc(-c3ccccc3OC)ncn2)c(OC)c1 ): 17.7% (inactive)

* * *

- assay.method.text: qHTS Assay for Lipid Storage Modulators (AID 1519)
- particulars: Drosophila S3 cells, BODIPY lipid droplet/cell ratio, laser cytometry; measured here: lipid channel max response; cells loaded with oleic acid
Records with an inconclusive call do not appear.
property: max response (%)
Output spec: scalar in %, unitless text.

# example entries with known answers
[[record]]
molecule = "Cc1cccc(CNc2ncnc3ccc(-c4c(C)noc4C)cc23)c1"
numeric_value = -10.6

[[record]]
molecule = "CC(=O)N1CCC2(CCN(Cc3ccccc3)CC2)CC1"
numeric_value = -4.62

[[record]]
molecule = "Cc1cccc(CNc2nc(-c3cccc(NS(C)(=O)=O)c3)nc3ccccc23)c1"
numeric_value = -11.1

[[record]]
molecule = "c1ccc(C(c2ccccc2)N2CC[C@@]3(CCCNC3)C2)cc1"
numeric_value = -6.03

[[record]]
molecule = "C[C@@]12CCC(=O)C=C1CC[C@H]1[C@H]3CC[C@](O)(C(=O)CO)[C@]3(C)CC(=O)[C@@H]12"
numeric_value = -3.69


Recorded max response (molecule COC(=O)[C@@H]1C2CC3c4[nH]c5cc(OC)ccc5c4CCN3CC2C[C@H](OC(=O)c2cc(OC)c(OC)c(OC)c2)C1OC (some centres undefined) ): -5.55

Recorded max response (molecule CS(=O)(=O)Nc1cccc(-c2nc(NC3CC3)c3ccccc3n2)c1 ): 22.8

Recorded max response (molecule CN1CCN(c2ccnc(-c3ccc(N(C)C)cc3)n2)CC1 ): 29.9

Recorded max response (molecule CC(C)CN1CCC2(CC1)CCN(C(=O)c1cc(C(F)(F)F)cc(C(F)(F)F)c1)CC2 ): -17.3

Recorded max response (molecule Clc1ccccc1-c1cncnc1NCCN1CCOCC1 ): 20.3

Recorded max response (molecule CC(C)COC[C@H](CN(Cc1ccccc1)c1ccccc1)N1CCCC1 ): -26.5

Recorded max response (molecule COc1ccccc1OC[C@H](O)COC(N)=O ): 2.55

Recorded max response (molecule Cc1noc(C)c1C(=O)N1CCC[C@@]2(CCN(c3ccccn3)C2)C1 ): 24.9

Recorded max response (molecule Oc1ccc2c(c1)OCC1(O)Cc3cc(O)c(O)cc3C21 (centres undefined) ): -7.12

* * *

- assay.method.text: qHTS Assay for Lipid Storage Modulators (AID 1519)
- particulars: Drosophila S3 cells, BODIPY lipid droplet/cell ratio, laser cytometry; measured here: cell count channel max response; cells loaded with oleic acid
Results filed as inconclusive are left out.
// reported max response for each item listed
Output spec: scalar in %, unitless text.

[[record]]
query_smiles = "COc1cccc(Cn2c(=O)c(CCc3ccccc3)nc3cnc(N4CCNCC4)nc32)c1"
property = "max response"
unit_symbol = "%"
numeric_value = 9.35

[[record]]
query_smiles = "Cc1cccc(CNc2ncncc2-c2ccccc2C(F)(F)F)c1"
property = "max response"
unit_symbol = "%"
numeric_value = -2.27

[[record]]
query_smiles = "COc1ccc(-c2nc3cnc(OC)nc3n(-c3ccc(OC)cc3)c2=O)cc1"
property = "max response"
unit_symbol = "%"
numeric_value = 29.3


Alright, here's another compound for you.
Recorded max response (compound Cn1cccc1C(=O)N1CCC[C@@]2(CCN(c3ncccn3)C2)C1 ): -6.2

* * *

- system.under.test: Ubiquitin carboxyl-terminal hydrolase 1 (Homo sapiens)
- assay.method.text: Inhibitors of USP1/UAF1: Pilot qHTS (AID 504865);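 note: rhodamine fluorescence freed from ubiquitin-rhodamine substrate followed over time; top concentration of the series differs between compounds; % is set by controls: 0 for no effect and ±100 for the full control effect; nearly all actives have a fitted effect of over 35% in size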
- particulars: purified USP1/UAF1, Ub-rhodamine cleavage fluorescence; series mostly up to 54.9 µM
Records with an inconclusive call do not appear. Activity calls are given as the source filed them. The call rests on the fitted dose curve; in most records, active means well fitted inhibition curve with a large enough effect; inconclusive means small, poorly fitted or top-dose-only effect; inactive means flat fitted curve, though single readings scatter.
Assign a class; possible classes are active, inactive

Reference set, count: 8
[[record]]
compound = "CN(C)C(=O)c1ccc(-c2cncnc2N(C)Cc2ccco2)cc1"
class_label = "inactive"

[[record]]
compound = "CN(C)c1ncc2nc(-c3cccc(C#N)c3)c(=O)n(C)c2n1"
class_label = "inactive"

[[record]]
compound = "COc1ccccc1CNc1cc(-c2ccc(C(=O)N(C)C)cc2)ncn1"
class_label = "inactive"

[[record]]
compound = "CN(C)c1ccc(-c2nc(-n3ccnc3)c3ccccc3n2)cc1"
class_label = "inactive"

[[record]]
compound = "Cn1c(=O)c(-c2cc(F)cc(F)c2)nc2cnc(N3CCNCC3)nc21"
class_label = "inactive"

[[record]]
compound = "c1ccc(CNc2nc(-c3ccc4c(c3)OCO4)nc3ccccc23)cc1"
class_label = "inactive"

[[record]]
compound = "CCNc1ncc2nc(-c3ccc(OC)cc3)c(=O)n(CCC#N)c2n1"
class_label = "inactive"

[[record]]
compound = "COc1ccc(-n2c(=O)c(-c3ccccc3)nc3cnc(N4CCOCC4)nc32)cc1"
class_label = "inactive"


stdin: Which outcome was assigned to CC1(C)SC2C(NC(=O)Cc3ccccc3)C(=O)N2C1C(=O)O (stereo unspecified) in this test?
stdout: inactive

* * *

- assay.method.text: AP1 Signaling Pathway (AID 357);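 note: ME-180 reporter cells stimulated with EGF at its EC50 level; % is set by controls: 0 for no effect and ±100 for the full control effect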
- particulars: ME-180 (cervical carcinoma) AP-1-bla reporter, EGF-induced, beta-lactamase ratio, 5 h; at 7.69 µM (top of the series) unless noted
Records with an inconclusive call do not appear.
property: activity change, negative = inhibition (%)
Output spec: scalar in %, unitless text.

# example entries with known answers
[[record]]
query_smiles = "COc1ncc2ncc(=O)n(C3CC3)c2n1"
unit_symbol = "%"
numeric_value = -1.23

[[record]]
query_smiles = "N#Cc1ccc(CN2CC3(CCN(C(=O)c4cnccn4)CC3)C2)cc1"
unit_symbol = "%"
numeric_value = -10.3


Alright, here's another molecule for you.
Recorded activity change, negative = inhibition (molecule COc1ccccc1CNc1cc(-c2cccc(C#N)c2)ncn1 ): -5.31

* * *

- system.under.test: Dual specificity protein kinase CLK4 (Homo sapiens)
- assay.method.text: qHTS Assay for Inhibitors of CDC-like Kinase 4 (ADP-FP Assay) (AID 1795); note: nearly all actives have a fitted effect of over 60% in size
- particulars: Transcreener ADP fluorescence polarization; series mostly up to 50 µM
Results filed as inconclusive are left out. Activity calls are given as the source filed them. The call rests on the fitted dose curve; in most records, active means well fitted inhibition curve with a large enough effect; inconclusive means small, poorly fitted or top-dose-only effect; inactive means flat fitted curve, though single readings scatter.
Assign a class; possible classes are label 1 (active), label 0 (inactive)

[[record]]
query_smiles = "CN(Cc1ccco1)c1ccnc(-c2cccc(C#N)c2)n1"
class_label = "label 1"

[[record]]
query_smiles = "COc1cccc(Nc2ncc3ncc(=O)n(C[C@H]4CCCO4)c3n2)c1"
class_label = "label 1"

[[record]]
query_smiles = "COc1cccc(Nc2ncc3nc(-c4ccc(Cl)cc4)c(=O)n(C[C@H]4CCCO4)c3n2)c1"
class_label = "label 0"

[[record]]
query_smiles = "COc1ccc(CNc2nc(-c3ccc(N(C)C)cc3)nc3ccccc23)c(OC)c1"
class_label = "label 0"

[[record]]
query_smiles = "COc1ccc(-c2nc3cnc(OC)nc3n(-c3ccccc3)c2=O)cc1"
class_label = "label 0"

[[record]]
query_smiles = "c1ccc(CNc2ncncc2-c2cccnc2)cc1"
class_label = "label 0"


stdin: Which outcome was assigned to CCNc1ncc2nc(-c3ccccc3)c(=O)n(CCOC)c2n1 in this test?
stdout: label 0

stdin: Which outcome was assigned to CCNc1ncc2nc(-c3ccc(F)cc3)c(=O)n(-c3ccccc3)c2n1 in this test?
stdout: label 0

stdin: Which outcome was assigned to c1cncc(-c2ccc3ncnc(NC4CCNCC4)c3c2)c1 in this test?
stdout: label 1

stdin: Which outcome was assigned to N#CCCn1c(=O)c(-c2cc(F)cc(F)c2)nc2cnc(Oc3ccccc3)nc21 in this test?
stdout: label 0
